# testDescription: Fluorescence spectrum (excitation and fluorescence maxima)
# Assay type: physicochemical
recordedMetric: maximum fluorescence wavelength (Em max) (nm)

[[record]]
molecule = "O=c1ccc2ccc(NC3C(O)OC(CO)[C@@H](O)[C@@H]3O)cc2o1 (stereo partly drawn)"
unitabbrev = "nm"
readoutnumber = 454.5

[[record]]
molecule = "Cc1cc(=O)oc2cc(NC3C(O)OC(CO)[C@@H](O)[C@@H]3O)ccc12 (stereo partly drawn)"
unitabbrev = "nm"
readoutnumber = 446.0

[[record]]
molecule = "Cc1cc2ccc(NC3C(O)OC(CO)[C@@H](O)[C@@H]3O)cc2oc1=O (stereo partly drawn)"
unitabbrev = "nm"
readoutnumber = 460.0

[[record]]
molecule = "O=c1cc(C(F)(F)F)c2ccc(NC3C(O)OC(CO)[C@@H](O)C3O)cc2o1 (stereo partly drawn)"
unitabbrev = "nm"
readoutnumber = 500.0

[[record]]
molecule = "O=c1ccc2ccc(NC3C(O)OC(CO)[C@H](O)[C@H]3O)cc2o1 (stereo partly drawn)"
unitabbrev = "nm"
readoutnumber = 454.5

[[record]]
molecule = "O=c1oc2cc(NC3C(O)OC(CO)[C@@H](O)[C@@H]3O)ccc2cc1C(F)(F)F (stereo partly drawn)"
unitabbrev = "nm"
readoutnumber = 455.0

[[record]]
molecule = "O=c1ccc2ccc(NC3C(O)OC(CO)[C@H](O)[C@H]3O)cc2[nH]1 (stereo partly drawn)"
unitabbrev = "nm"
readoutnumber = 423.0

[[record]]
molecule = "O=c1ccc2ccc(NC3C(O)OC(CO)[C@@H](O)[C@@H]3O)cc2[nH]1 (stereo partly drawn)"
unitabbrev = "nm"
readoutnumber = 423.0

